These measurements were taken from the supplement of paper PMC11502859.

In this section, each of the sequences is paired with its reported median enrichment.
test system: HEK293T; assay: median enrichment of reporter reads in eGFP-reduced (low/intermediate) vs eGFP-high sorted cells (eGFP-extension fusion abundance) (ratio); higher = stronger loss of eGFP-fusion protein abundance (more destabilising extension)
Could you respond with only the numeric value?

Example cases with answers are listed next.
Ordered Residues	median enrichment
VVVVVVVVV [Val09]	8.21
QKILPSLVVGTDRIHLTQTSSFTDFNYLFLKT [WSB1]	2.9

Challenge: Quick one: give measured median enrichment for YYHMFSWYVN [ABHD10]
Response given: 17.6

Challenge: Quick one: give measured median enrichment for CGILRWLACWAWGLLTDSMEQGWAVCAHAQHALRGGGGGRGFLMSVQELKVSGVLPRICPTPHDKTELCNKQYQFILAVGFCF [WDR6]
Response given: 9.47

----------
system: HEK293T; assay: median enrichment of reporter reads in eGFP-reduced (low/intermediate) vs eGFP-high sorted cells (eGFP-extension fusion abundance) (ratio); higher = stronger loss of eGFP-fusion protein abundance (more destabilising extension)
In this section, each of the substances is paired with its reported median enrichment.
Could you respond with only the numeric value?

Substance	Parameter Measured	Value Observed
LSCPDAME [MYH2]	median enrichment	0.416

Challenge: Quick one: give measured median enrichment for SVWAGLFNMVFAVLPPWGPWSDNIVSLVRLSRCLIRTANGASPTPPRVRPPFHQRVSSQRPPASCPAAQEEKEGLNSIAIFFP [PDGFB]
Response given: 7.44

Challenge: Quick one: give measured median enrichment for WVLIPTFPCDLGCRCSCCKMEANLTGVL [ADD2]
Response given: 6.13

Challenge: Quick one: give measured median enrichment for RRTHRQ [ZNF397]
Response given: 1.02

Challenge: Quick one: give measured median enrichment for SYKSIVSDWTITSFNNVSNNVLY [FAM135A]
Response given: 30.6

----------
test system: HEK293T; experiment: median enrichment of reporter reads in eGFP-reduced (low/intermediate) vs eGFP-high sorted cells (eGFP-extension fusion abundance) (ratio); higher = stronger loss of eGFP-fusion protein abundance (more destabilising extension);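 also: lentiviral eGFP-IRES-mCherry reporter pool sorted by FACS 96 h post-transduction, gated on mCherry-high cells, Illumina read counts normalized per million, median across four biological replicates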
Where median enrichment equals or exceeds 3, the correct label is class 1; where it does not, the label is class 0.

Please review the entries below; each comes with its answer.
Substance	Label Class
RGTAVPACSPHLGRGSLAAFSLRSRST [AGAP1]	class 0
LRAGEPHILTAPGLYPGHSRDRLVVEPGGAKKASCGPRTAAVRLPMSQAVCVVTAPLSVHLQQRQRRRLPPGRFSLFIC [ZMYND19]	class 1
RLLTHRHNLGH [MMP19]	class 1
QSPSAARKCWSWSKIGFFKIFLVIREYI [PSD3]	class 1
QPDKRNKLFFLMDCSKRSLKIPWLSTYKTYYLNKEEYYVNIHIKNFGGFEKNELYIYKSTLKTNFNCLKQLF [NLGN1]	class 1
YLLCVVGGGYYLYQPSVCHEPVGKSDIFII [IL1RAP]	class 1
SAGAFVAISL [MSI2]	class 1
WLQPAKSILLFHFFHDGAV [CTSK]	class 1

Challenge: Check if median enrichment >= 3 (inclusive). Item: RAGPAPCPRSPLLSRPHPPPARPTRGATPPFESLAVGWTLPFPEAA [C1QL4]
Response given: class 1

Challenge: Check if median enrichment >= 3 (inclusive). Item: SGLSDCPCPAHHPVTATPKPTPTGAHCPTPAPGRHPAGHFTCCH [FERMT3]
Response given: class 0
